biological target: P-glycoprotein (Pgp) purified from MDR CH^RB30 Chinese hamster ovary cells (Cricetulus griseus, UniProt P21448); experiment: Quenching of intrinsic Trp fluorescence of purified Pgp by nucleotides, drugs and peptides; conditions: read-out: Kd1; single binding site or high affinity site; 100 μg/mL Pgp, 2 mM CHAPS, 0.5 mg/mL PMPC, 22° C.
Sequence (P21448 whole entry): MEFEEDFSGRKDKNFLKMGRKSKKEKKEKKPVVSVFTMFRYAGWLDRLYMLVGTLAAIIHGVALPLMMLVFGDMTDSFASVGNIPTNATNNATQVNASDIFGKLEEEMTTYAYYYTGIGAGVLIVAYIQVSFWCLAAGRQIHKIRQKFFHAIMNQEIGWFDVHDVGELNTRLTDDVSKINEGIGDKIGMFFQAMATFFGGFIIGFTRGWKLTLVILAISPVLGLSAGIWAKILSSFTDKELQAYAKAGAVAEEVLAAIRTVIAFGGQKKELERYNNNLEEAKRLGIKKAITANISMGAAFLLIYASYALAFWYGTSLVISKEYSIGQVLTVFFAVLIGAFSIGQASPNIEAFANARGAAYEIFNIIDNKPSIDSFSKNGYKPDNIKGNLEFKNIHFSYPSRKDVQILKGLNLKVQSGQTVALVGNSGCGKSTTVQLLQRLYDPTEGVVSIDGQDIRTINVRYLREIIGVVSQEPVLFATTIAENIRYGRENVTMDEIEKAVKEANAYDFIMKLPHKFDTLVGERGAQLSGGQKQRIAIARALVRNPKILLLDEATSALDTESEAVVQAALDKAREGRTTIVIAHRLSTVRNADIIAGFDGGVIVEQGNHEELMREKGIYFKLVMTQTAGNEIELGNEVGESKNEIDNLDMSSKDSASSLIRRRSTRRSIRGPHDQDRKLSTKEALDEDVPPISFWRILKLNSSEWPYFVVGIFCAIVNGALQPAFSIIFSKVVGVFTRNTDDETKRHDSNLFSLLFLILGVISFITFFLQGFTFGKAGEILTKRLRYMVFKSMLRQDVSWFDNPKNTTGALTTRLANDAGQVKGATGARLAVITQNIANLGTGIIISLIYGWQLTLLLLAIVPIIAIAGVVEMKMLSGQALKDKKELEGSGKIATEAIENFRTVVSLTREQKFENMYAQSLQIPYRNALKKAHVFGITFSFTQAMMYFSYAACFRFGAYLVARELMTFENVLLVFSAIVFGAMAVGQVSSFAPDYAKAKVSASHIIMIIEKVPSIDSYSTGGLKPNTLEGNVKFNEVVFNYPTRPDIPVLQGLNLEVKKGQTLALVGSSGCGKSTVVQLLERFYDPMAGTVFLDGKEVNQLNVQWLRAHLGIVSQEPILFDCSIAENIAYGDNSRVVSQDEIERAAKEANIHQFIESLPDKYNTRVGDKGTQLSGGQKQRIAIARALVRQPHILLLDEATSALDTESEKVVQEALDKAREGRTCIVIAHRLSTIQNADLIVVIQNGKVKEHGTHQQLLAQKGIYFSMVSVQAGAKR
Recorded pKd, one value per entry.
# pKd: negative log10 of molar concentration; output just the value

// solved cases for pKd follow
>  <compound>
CCCCCCCCCCCCCCCCOP(=O)([O-])OCC[N+](C)(C)C [mitelfosine]

>  <measured-property>
pKd

>  <value-reported>
4.69

$$$$
>  <compound>
CCN(CC)c1ccc2c(-c3ccccc3C(=O)O)c3ccc(=[N+](CC)CC)cc-3oc2c1 [rhodamine B]

>  <measured-property>
pKd

>  <value-reported>
5.40

$$$$

# next compound below
Q: Please report the recorded pKd for CCCCCCCCCCCCCCCCCCOP(=O)([O-])OC1CC[N+](C)(C)CC1 [D21266] .
A: 4.70

###

target: P-glycoprotein (Pgp) purified from MDR CH^RB30 Chinese hamster ovary cells (Cricetulus griseus, UniProt P21448); test: Quenching of intrinsic Trp fluorescence of purified Pgp by nucleotides, drugs and peptides; details: maximal Trp quenching, single or higher affinity component
Exam item: assign y to entries whose ΔFmax1 is below 10% and n to entries at or above 10%. Note that a value of exactly 10% receives n.

Study these solved cases before continuing.
>  <compound>
CCOc1ccc(-c2nc3ccc(-c4nc5ccc(N6CCN(C)CC6)cc5[nH]4)cc3[nH]2)cc1

>  <category-label>
n

$$$$
>  <compound>
COc1cccc2c1C(=O)c1c(O)c3c(c(O)c1C2=O)C[C@@](O)(C(=O)CO)C[C@@H]3O[C@H]1C[C@H](N)[C@H](O)[C@H](C)O1

>  <category-label>
n

$$$$
>  <compound>
Nc1ncnc2c1ncn2[C@@H]1O[C@H](COP(=O)(O)OP(=O)([O-])OP(=O)([O-])O)[C@@H](O)[C@H]1O.[Na+].[Na+] [ATP, disodium-ATP]

>  <category-label>
n

$$$$
>  <compound>
CN1CCN(CCCN2c3ccccc3Sc3ccc(C(F)(F)F)cc32)CC1

>  <category-label>
n

$$$$
>  <compound>
CC(C)[C@@H]1NC(=O)[C@H](C)OC(=O)[C@@H](C(C)C)NC(=O)[C@@H](C(C)C)OC(=O)[C@H](C(C)C)NC(=O)[C@H](C)OC(=O)[C@@H](C(C)C)NC(=O)[C@@H](C(C)C)OC(=O)[C@H](C(C)C)NC(=O)[C@H](C)OC(=O)[C@@H](C(C)C)NC(=O)[C@@H](C(C)C)OC1=O

>  <category-label>
y

$$$$

Now consider a different compound.
Q: Please check: ΔFmax1 for CCCCCCCCCCCCCCCCCCOP(=O)([O-])OC1CC[N+](C)(C)CC1 , strictly under 10% or not?
A: n

###

biological target: P-glycoprotein (Pgp) purified from MDR CH^RB30 Chinese hamster ovary cells (Cricetulus griseus); test: Trp fluorescence lifetime of purified Pgp in presence of nucleotides and drugs; design: Pgp was purified from plasma membrane of MDR CH^RB30 cells; endogenous in cells; host or cells: MDR CH^RB30 Chinese hamster ovary cells (plasma membrane, CHAPS extraction, concanavalin A-Sepharose pass-through); details: Pgp Trp decay, concentration of substance
measured-property: t1 (fluorescence lifetime) (ns)
Express the result in ns but write the number alone.

Some solved entries appear below for comparison.
>  <substance-smiles>
CC[C@]1(O)C[C@@H]2CN(CCc3c([nH]c4ccccc34)[C@@](C(=O)OC)(c3cc4c(cc3OC)N(C)[C@H]3[C@@](O)(C(=O)OC)[C@H](OC(C)=O)[C@]5(CC)C=CCN6CC[C@]43[C@@H]65)C2)C1

>  <t1 (fluorescence lifetime) [ns]>
1.1

$$$$
>  <substance-smiles>
COc1cccc2c1C(=O)c1c(O)c3c(c(O)c1C2=O)C[C@@](O)(C(C)=O)C[C@@H]3O[C@H]1C[C@H](N)[C@H](O)[C@H](C)O1

>  <t1 (fluorescence lifetime) [ns]>
1.3

$$$$
>  <substance-smiles>
COc1cc2c(c(OC)c1OC)-c1ccc(OC)c(=O)cc1[C@@H](NC(C)=O)CC2

>  <t1 (fluorescence lifetime) [ns]>
1.4

$$$$

For the next question, use this compound.
Q: GET /values?readout=t1 (fluorescence lifetime)&item= CN1CCN(CCCN2c3ccccc3Sc3ccc(C(F)(F)F)cc32)CC1
A: 1.1

###

target: P-glycoprotein (Pgp) purified from MDR CH^RB30 Chinese hamster ovary cells (Cricetulus griseus); test: Quenching of intrinsic Trp fluorescence of purified Pgp by nucleotides, drugs and peptides; conditions: read-out: Kd1; single binding site or high affinity site; 100 μg/mL Pgp, 2 mM CHAPS, 0.5 mg/mL PMPC, 22° C.
Listing: pKd of selected compounds
Note on units: pKd is unitless, being -log10 of a concentration expressed in mol/L.

Would you please look over these solved cases?
>  <compound>
Nc1ncnc2c1ncn2[C@@H]1O[C@H](COP(=O)(O)OP(=O)([O-])OP(=O)([O-])O)[C@@H](O)[C@H]1O.[Na+].[Na+] [ATP, disodium-ATP]

>  <value-reported>
3.55

$$$$
>  <compound>
CCCCCCCCCCCCCCCCCCOP(=O)(O)OCC[N+]1(C)CCCCC1 [D-20133]

>  <value-reported>
4.89

$$$$
>  <compound>
Nc1ncnc2c1ncn2[C@@H]1O[C@H](COP(=O)([O-])OP(=O)([O-])O)[C@@H](O)[C@H]1O.[Na+].[Na+] [ADP, disodium-ADP]

>  <value-reported>
3.48

$$$$

Now for another entry.
Q: May I ask what pKd has been recorded for CCOc1ccc(-c2nc3ccc(-c4nc5ccc(N6CCN(C)CC6)cc5[nH]4)cc3[nH]2)cc1 [Hoechst 33342] ?
A: 5.58

###

target: P-glycoprotein (Pgp) purified from MDR CH^RB30 Chinese hamster ovary cells (Cricetulus griseus); experiment: Trp fluorescence lifetime of purified Pgp in presence of nucleotides and drugs; design: Pgp was purified from plasma membrane of MDR CH^RB30 cells; endogenous in cells; host or cells: MDR CH^RB30 Chinese hamster ovary cells (plasma membrane, CHAPS extraction, concanavalin A-Sepharose pass-through); conditions: Pgp Trp decay, concentration of substance
measured-property: a1 (pre-exponential value)
Answer using only a numeral; do not append any unit.

See these solved cases before continuing.
>  <substance-smiles>
CC[C@]1(O)C[C@@H]2CN(CCc3c([nH]c4ccccc34)[C@@](C(=O)OC)(c3cc4c(cc3OC)N(C)[C@H]3[C@@](O)(C(=O)OC)[C@H](OC(C)=O)[C@]5(CC)C=CCN6CC[C@]43[C@@H]65)C2)C1

>  <measured-property>
a1 (pre-exponential value)

>  <value-reported>
1.07

$$$$
>  <substance-smiles>
COc1cccc2c1C(=O)c1c(O)c3c(c(O)c1C2=O)C[C@@](O)(C(C)=O)C[C@@H]3O[C@H]1C[C@H](N)[C@H](O)[C@H](C)O1

>  <measured-property>
a1 (pre-exponential value)

>  <value-reported>
0.71

$$$$
>  <substance-smiles>
CN1CCN(CCCN2c3ccccc3Sc3ccc(C(F)(F)F)cc32)CC1

>  <measured-property>
a1 (pre-exponential value)

>  <value-reported>
0.72

$$$$

// moving on: another record for a1 (pre-exponential value)
Q: Would you mind telling me what a1 (pre-exponential value) value was observed for COc1cc2c(c(OC)c1OC)-c1ccc(OC)c(=O)cc1[C@@H](NC(C)=O)CC2 ?
A: 0.66

###

biological target: P-glycoprotein (Pgp) purified from MDR CH^RB30 Chinese hamster ovary cells (Cricetulus griseus); test: Quenching of intrinsic Trp fluorescence of purified Pgp by nucleotides, drugs and peptides; details: read-out: Kd2; lower affinity site of biphasic quench curve
measured-property: Kd (µM)
Respond numerically; units are µM and should not be typed.

Q: Fill in the blank: the reported Kd of CCN(CC)c1ccc2c(-c3ccccc3C(=O)O)c3ccc(=[N+](CC)CC)cc-3oc2c1 is ____.
A: 33.2

###

target: P-glycoprotein (Pgp) purified from MDR CH^RB30 Chinese hamster ovary cells (Cricetulus griseus, UniProt P21448); test: Quenching of intrinsic Trp fluorescence of purified Pgp by nucleotides, drugs and peptides; conditions: Kd1
Peptide text beside a SMILES is read from it. * marks the point of attachment. Cbz = O=C(OCc1ccccc1)*; Boc = CC(C)(C)OC(=O)*; OBn = c1ccc(CO*)cc1; OtBu = CC(C)(C)O*
measured-property: Kd (nM)
Give the value, in units of nM, as a plain number.

>  <compound>
COC(=O)[C@H](CCCCNC(=O)[C@H](CCC(=O)OCc1ccccc1)NC(=O)OC(C)(C)C)NC(=O)[C@H](CCC(=O)OCc1ccccc1)NC(=O)OC(C)(C)C [reversin 205]

>  <Kd / nM>
370

$$$$

Alright, here's another compound for you.
Q: Any idea what Kd was measured for CC(C)(C)OC(=O)N[C@@H](CC(=O)OCc1ccccc1)C(=O)N[C@@H](CCCCNC(=O)OCc1ccccc1)C(=O)OC(C)(C)C [reversin 201] (Boc-Asp(OBn)-Lys(Cbz)-OtBu; N-terminus and C-terminus assumed) ?
A: 230

Entry source: patent US20040029100A1
